From: patent EP4741395A1

- MEASURED_TARGET: JAK 1 (Homo sapiens)
- Sequence (P23458 whole entry): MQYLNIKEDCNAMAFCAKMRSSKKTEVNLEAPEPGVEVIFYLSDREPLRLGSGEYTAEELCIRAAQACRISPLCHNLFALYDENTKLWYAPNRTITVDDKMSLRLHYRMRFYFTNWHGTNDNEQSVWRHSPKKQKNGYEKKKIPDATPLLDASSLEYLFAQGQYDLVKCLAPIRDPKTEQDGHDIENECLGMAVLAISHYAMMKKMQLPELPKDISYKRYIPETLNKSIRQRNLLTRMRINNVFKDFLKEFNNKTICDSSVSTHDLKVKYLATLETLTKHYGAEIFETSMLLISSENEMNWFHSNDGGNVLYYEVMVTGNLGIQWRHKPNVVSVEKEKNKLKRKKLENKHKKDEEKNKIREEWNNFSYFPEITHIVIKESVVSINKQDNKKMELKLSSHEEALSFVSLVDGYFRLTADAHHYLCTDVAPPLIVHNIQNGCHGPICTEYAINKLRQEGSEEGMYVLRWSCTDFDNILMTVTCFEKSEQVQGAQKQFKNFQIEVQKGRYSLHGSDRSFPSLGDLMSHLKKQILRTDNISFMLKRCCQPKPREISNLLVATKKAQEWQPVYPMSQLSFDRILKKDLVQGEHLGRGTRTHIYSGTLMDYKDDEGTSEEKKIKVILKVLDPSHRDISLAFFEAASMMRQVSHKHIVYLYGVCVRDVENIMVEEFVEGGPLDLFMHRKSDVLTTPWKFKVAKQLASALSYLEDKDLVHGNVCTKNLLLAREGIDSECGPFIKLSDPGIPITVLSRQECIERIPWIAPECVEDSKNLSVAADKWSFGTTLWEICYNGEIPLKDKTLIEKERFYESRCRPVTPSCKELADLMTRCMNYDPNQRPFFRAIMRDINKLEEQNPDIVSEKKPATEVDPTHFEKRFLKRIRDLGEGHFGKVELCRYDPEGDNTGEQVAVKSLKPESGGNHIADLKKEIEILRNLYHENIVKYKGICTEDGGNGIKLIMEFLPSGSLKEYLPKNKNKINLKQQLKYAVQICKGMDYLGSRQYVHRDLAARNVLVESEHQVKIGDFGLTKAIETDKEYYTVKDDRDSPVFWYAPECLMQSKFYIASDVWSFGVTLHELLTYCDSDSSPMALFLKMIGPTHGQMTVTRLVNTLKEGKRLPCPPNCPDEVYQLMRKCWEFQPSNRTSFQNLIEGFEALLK
- ASSAY_INFO: JAK Human TK kinase enzymatic radiometric assay (Eurofins), JAK 1
- CONDITION_INFO: 10 nM; value close to 100 indicates low JAK activity of the compound
RECORDED_ENDPOINT: JAK 1 Activity
Form rule: numeric answer, no unit written next to it.

Examples from the recorded data:
- C[C@@H]1CCN(C(=O)CC#N)C[C@@H]1N(C)c1ncnc2c1ccn2C(=O)N(C)CCN(C)C(=O)Nc1cc(N(C)C)ccc1N: 102
- Cc1ccc(NC(=O)N(C(=O)n2ccc3c(N(C)[C@H]4CN(C(=O)CC#N)CC[C@H]4C)ncnc32)c2ccc(C)cc2N)c(N)c1: 103

We next turn to a different compound, shown below.
Q. Check the records and state JAK 1 Activity for C[C@@H]1CCN(C(=O)CC#N)C[C@@H]1N(C)c1ncnc2c1ccn2C(=O)N(C)CCN(C)C(=O)Nc1cc2c(cc1N)n(C)c(=O)n2C
A. 84

----------
- ASSAY_INFO: in vivo
- CONDITION_INFO: male, mouse, in vivo, po
RECORDED_ENDPOINT: MTD at 4 days (mg/kg)
Kindly provide the numeric value in mg/kg only, without the unit symbol.

Q. Give a short answer stating reported MTD at 4 days for C[C@@H]1CCN(C(=O)CC#N)C[C@@H]1N(C)c1ncnc2c1ccn2C(=O)Nc1ccccc1N .
A. 1600

----------
- ASSAY_INFO: DAF-2 assay of NO scavenging activity without and with H2O2 (ROS)
- Assay type: biochemical
- CONDITION_INFO: compound 10 µM; SNAP 100 µM, DAF-2 10 µM, 3 hours, 37°C
RECORDED_ENDPOINT: NO Scavenging Activity (%) (Mean±SD) Without H2O2
Give just the numeric value; % need not be written.

Some entries whose results are on file:
* COc1ccc(NC(=O)OCc2ccc(B3OC(C)(C)C(C)(C)O3)cc2)c(NC(=O)n2ccc3c(N(C)[C@H]4CN(C(=O)CC#N)CC[C@H]4C)ncnc32)c1 | 59.31
* C[C@@H]1CCN(C(=O)CC#N)C[C@@H]1N(C)c1ncnc2c1ccn2C(=O)N(C)CCN(C)C(=O)Nc1cc(N(C)C)ccc1NC(=O)OCc1ccc(B(O)O)cc1 | 52.96

Then this molecule:
Q. Given the molecule C[C@@H]1CCN(C(=O)CC#N)C[C@@H]1N(C)c1ncnc2c1ccn2C(=O)N(C)CCN(C)C(=O)Nc1cc2c(cc1NC(=O)OCc1ccc(B(O)O)cc1)n(C)c(=O)n2C , write its reported NO Scavenging Activity (%) (Mean±SD) Without H2O2.
A. 40.54

----------
- MEASURED_TARGET: JAK 3 (Homo sapiens)
- Construct: purchased Eurofins Scientific (assay service)
- Sequence (P52333 whole entry): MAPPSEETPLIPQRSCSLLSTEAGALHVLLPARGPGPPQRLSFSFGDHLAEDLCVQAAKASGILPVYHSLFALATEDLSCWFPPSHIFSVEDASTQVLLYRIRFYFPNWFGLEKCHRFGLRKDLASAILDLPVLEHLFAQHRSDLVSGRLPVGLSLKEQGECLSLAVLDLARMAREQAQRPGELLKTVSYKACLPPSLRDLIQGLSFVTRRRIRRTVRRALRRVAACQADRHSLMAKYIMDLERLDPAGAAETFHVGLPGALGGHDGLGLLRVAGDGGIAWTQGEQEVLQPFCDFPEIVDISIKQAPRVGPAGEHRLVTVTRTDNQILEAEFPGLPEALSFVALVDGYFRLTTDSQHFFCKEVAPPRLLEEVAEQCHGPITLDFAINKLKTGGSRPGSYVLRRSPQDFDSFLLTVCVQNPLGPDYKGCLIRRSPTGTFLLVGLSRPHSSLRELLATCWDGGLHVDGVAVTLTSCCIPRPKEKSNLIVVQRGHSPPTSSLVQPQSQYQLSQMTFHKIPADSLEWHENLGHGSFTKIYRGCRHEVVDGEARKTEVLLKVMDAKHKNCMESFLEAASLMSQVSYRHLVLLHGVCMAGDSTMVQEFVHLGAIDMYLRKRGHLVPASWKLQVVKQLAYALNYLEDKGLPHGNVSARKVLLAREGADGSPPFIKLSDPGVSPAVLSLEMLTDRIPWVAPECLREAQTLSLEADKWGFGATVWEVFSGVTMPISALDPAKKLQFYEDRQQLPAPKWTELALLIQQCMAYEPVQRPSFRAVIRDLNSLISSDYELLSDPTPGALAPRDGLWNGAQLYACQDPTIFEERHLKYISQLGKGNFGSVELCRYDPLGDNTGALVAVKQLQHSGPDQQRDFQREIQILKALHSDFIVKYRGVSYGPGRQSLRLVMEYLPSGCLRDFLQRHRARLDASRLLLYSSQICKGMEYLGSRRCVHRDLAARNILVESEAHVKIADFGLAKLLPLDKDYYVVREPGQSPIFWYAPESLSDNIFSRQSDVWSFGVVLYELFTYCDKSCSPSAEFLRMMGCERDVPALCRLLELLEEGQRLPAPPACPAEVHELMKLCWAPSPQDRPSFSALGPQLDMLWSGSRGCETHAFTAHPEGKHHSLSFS
- ASSAY_INFO: JAK Human TK kinase enzymatic radiometric assay (Eurofins), JAK 3
- Assay type: biochemical
- Design: unit not given here
- CONDITION_INFO: 0.1 nM; value close to 100 indicates low JAK activity of the compound
RECORDED_ENDPOINT: JAK 3 Activity
// response body must contain only the number

Previously resolved entries follow.
- C[C@@H]1CCN(C(=O)CC#N)C[C@@H]1N(C)c1ncnc2c1ccn2C(=O)N(C(=O)Nc1ccccc1N)c1ccccc1N: 103
- COc1ccc(NC(=O)N(C(=O)n2ccc3c(N(C)[C@H]4CN(C(=O)CC#N)CC[C@H]4C)ncnc32)c2ccc(OC)cc2N)c(N)c1: 113
- C[C@@H]1CCN(C(=O)CC#N)C[C@@H]1N(C)c1ncnc2c1ccn2C(=O)Nc1ccccc1N: 94

Next:
Q. Consider the compound Cc1ccc(NC(=O)N(C(=O)n2ccc3c(N(C)[C@H]4CN(C(=O)CC#N)CC[C@H]4C)ncnc32)c2ccc(C)cc2N)c(N)c1 . State its measured JAK 3 Activity.
A. 114

----------
- MEASURED_TARGET: JAK 3 (Homo sapiens)
- Construct: purchased Eurofins Scientific (assay service)
- ASSAY_INFO: JAK Human TK kinase enzymatic radiometric assay (Eurofins), JAK 3
- Format: biochemical
- Design: unit not given here
- CONDITION_INFO: 10 nM; value close to 100 indicates low JAK activity of the compound
RECORDED_ENDPOINT: JAK 3 Activity
Would you mind answering with just the numeric figure?

• COc1ccc(NC(=O)N(C(=O)n2ccc3c(N(C)[C@H]4CN(C(=O)CC#N)CC[C@H]4C)ncnc32)c2ccc(OC)cc2N)c(N)c1 = 112

Q. Could you please provide reported JAK 3 Activity for Cc1ccc(NC(=O)N(C(=O)n2ccc3c(N(C)[C@H]4CN(C(=O)CC#N)CC[C@H]4C)ncnc32)c2ccc(C)cc2N)c(N)c1 ? Thanks!
A. 111

Q. Output JAK 3 Activity of C[C@@H]1CCN(C(=O)CC#N)C[C@@H]1N(C)c1ncnc2c1ccn2C(=O)Nc1ccccc1N
A. 55

Q. State its JAK 3 Activity: C[C@@H]1CCN(C(=O)CC#N)C[C@@H]1N(C)c1ncnc2c1ccn2C(=O)N(C(=O)Nc1ccccc1N)c1ccccc1N
A. 98

----------
In this section we review reported JAK 2 Activity values for a set of compounds.
- MEASURED_TARGET: JAK 2 (Homo sapiens, UniProt O60674)
- Construct: purchased Eurofins Scientific (assay service)
- Sequence (O60674 whole entry): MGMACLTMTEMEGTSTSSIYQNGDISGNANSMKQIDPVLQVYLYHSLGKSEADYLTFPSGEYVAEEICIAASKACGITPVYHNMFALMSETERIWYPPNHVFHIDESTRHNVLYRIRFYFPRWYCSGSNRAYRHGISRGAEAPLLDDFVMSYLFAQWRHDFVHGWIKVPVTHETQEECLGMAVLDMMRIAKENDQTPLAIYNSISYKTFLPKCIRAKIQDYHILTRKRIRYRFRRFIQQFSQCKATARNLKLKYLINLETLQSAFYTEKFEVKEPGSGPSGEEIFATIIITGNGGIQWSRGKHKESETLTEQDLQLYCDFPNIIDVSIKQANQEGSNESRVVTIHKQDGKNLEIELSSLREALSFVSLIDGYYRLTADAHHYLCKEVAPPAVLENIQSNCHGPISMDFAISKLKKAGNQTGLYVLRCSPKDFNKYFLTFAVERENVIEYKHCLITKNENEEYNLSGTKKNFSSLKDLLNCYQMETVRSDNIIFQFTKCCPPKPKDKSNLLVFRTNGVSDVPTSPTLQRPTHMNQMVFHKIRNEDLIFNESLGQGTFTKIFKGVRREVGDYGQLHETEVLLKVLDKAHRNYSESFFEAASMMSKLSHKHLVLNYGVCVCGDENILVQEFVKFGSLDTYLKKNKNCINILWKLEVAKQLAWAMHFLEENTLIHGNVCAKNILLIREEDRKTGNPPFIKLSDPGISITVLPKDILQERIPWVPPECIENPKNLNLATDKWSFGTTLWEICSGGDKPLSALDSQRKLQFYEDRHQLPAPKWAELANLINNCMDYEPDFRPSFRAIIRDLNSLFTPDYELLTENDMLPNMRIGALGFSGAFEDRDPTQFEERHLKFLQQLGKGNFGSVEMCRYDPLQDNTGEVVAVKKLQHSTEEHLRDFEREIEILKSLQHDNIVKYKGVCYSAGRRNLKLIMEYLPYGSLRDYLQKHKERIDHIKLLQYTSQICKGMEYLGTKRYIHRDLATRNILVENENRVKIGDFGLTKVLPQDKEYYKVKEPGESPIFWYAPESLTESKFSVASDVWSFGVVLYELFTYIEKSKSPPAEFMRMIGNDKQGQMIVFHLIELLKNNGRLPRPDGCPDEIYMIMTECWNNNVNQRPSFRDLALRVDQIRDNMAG
- ASSAY_INFO: JAK Human TK kinase enzymatic radiometric assay (Eurofins), JAK 2
- Format: biochemical
- Set-up: unit not given here
- CONDITION_INFO: 1 nM; value close to 100 indicates low JAK activity of the compound

These solved cases illustrate the format of a correct answer.
- COc1ccc(NC(=O)N(C(=O)n2ccc3c(N(C)[C@H]4CN(C(=O)CC#N)CC[C@H]4C)ncnc32)c2ccc(OC)cc2N)c(N)c1: 107
- Cc1ccc(NC(=O)N(C(=O)n2ccc3c(N(C)[C@H]4CN(C(=O)CC#N)CC[C@H]4C)ncnc32)c2ccc(C)cc2N)c(N)c1: 111
- C[C@@H]1CCN(C(=O)CC#N)C[C@@H]1N(C)c1ncnc2c1ccn2C(=O)Nc1ccccc1N: 92

Q. Tell me its JAK 2 Activity on JAK 2 (Homo sapiens, UniProt O60674): C[C@@H]1CCN(C(=O)CC#N)C[C@@H]1N(C)c1ncnc2c1ccn2C(=O)N(C(=O)Nc1ccccc1N)c1ccccc1N
A. 99

----------
- ASSAY_INFO: DAF-2 assay of NO scavenging activity without and with H2O2 (ROS)
- Assay type: biochemical
- CONDITION_INFO: compound 10 µM; SNAP 100 µM, H2O2 1 mM, DAF-2 10 µM, 3 hours, 37°C
// reported NO Scavenging Activity (%) (Mean±SD) With H2O2 for each item listed
Express the result in % but write the number alone.

Q. Specify NO Scavenging Activity (%) (Mean±SD) With H2O2 for C[C@@H]1CCN(C(=O)CC#N)C[C@@H]1N(C)c1ncnc2c1ccn2C(=O)N(C)CCN(C)C(=O)Nc1cc2c(cc1NC(=O)OCc1ccc(B(O)O)cc1)n(C)c(=O)n2C and stop.
A. 53.52

Q. Please give measured NO Scavenging Activity (%) (Mean±SD) With H2O2 of the following entry: C[C@@H]1CCN(C(=O)CC#N)C[C@@H]1N(C)c1ncnc2c1ccn2C(=O)N(C)CCN(C)C(=O)Nc1cc(N(C)C)ccc1NC(=O)OCc1ccc(B(O)O)cc1
A. 83.96

Q. Consider the compound COc1ccc(NC(=O)OCc2ccc(B3OC(C)(C)C(C)(C)O3)cc2)c(NC(=O)n2ccc3c(N(C)[C@H]4CN(C(=O)CC#N)CC[C@H]4C)ncnc32)c1 . State its measured NO Scavenging Activity (%) (Mean±SD) With H2O2.
A. 97.09

----------
- ASSAY_INFO: DAF-2 assay of NO scavenging activity (NO donor SNAP)
- Assay type: biochemical
- CONDITION_INFO: compound 10 µM; DAF-2 10 µM, SNAP 100 µM, PBS, 3 hours, 37°C
RECORDED_ENDPOINT: NO Scavenging Activity (%) (Mean±SD)
Express the result in % but write the number alone.

In the examples that follow, each entry is paired with its recorded NO Scavenging Activity (%) (Mean±SD).
* CC[C@@H]1CN(C(=O)NCC(F)(F)F)C[C@@H]1c1cnc2cnc3c(ccn3C(=O)Nc3ccc(N(C)C)cc3N)n12 | 88.19
* C[C@@H]1CCN(C(=O)CC#N)C[C@@H]1N(C)c1ncnc2c1ccn2C(=O)N(C)CCN(C)C(=O)Nc1cc2c(cc1N)n(C)c(=O)n2C | 48.96
* Cc1ccc(NC(=O)OCC(=O)C2(O)C(C)CC3C4CCC5=CC(=O)C=CC5(C)C4(F)C(O)CC32C)c(N)c1 (stereo not shown) | 0.76
* CC[C@@H]1CN(C(=O)NCC(F)(F)F)C[C@@H]1c1cnc2cnc3c(ccn3C(=O)Nc3cc4c(cc3N)n(C)c(=O)n4C)n12 | 92.21
* C[C@@H]1CCN(C(=O)CC#N)C[C@@H]1N(C)c1ncnc2c1ccn2C(=O)N(C)CCN(C)C(=O)Nc1cc(N(C)C)ccc1N | 66.27
* CC[C@@H]1CN(C(=O)NCC(F)(F)F)C[C@@H]1c1cnc2cnc3c(ccn3C(=O)Nc3ccccc3N)n12 | 25.18

For the next question, use this compound.
Q. Complete the entry with NO Scavenging Activity (%) (Mean±SD) for CC1CC2C3CCC4=CC(=O)C=CC4(C)C3(F)C(O)CC2(C)C1(O)C(=O)COC(=O)Nc1ccccc1N (stereo not shown)
A. 1.52
